Entries and their pEC50 values follow.
TARGET_OF_ASSAY: T1, human TIM-3 full length, overexpressed on CHO-S cells (human, UniProt Q8TDQ0 22-301)
T1 construct: cells fixed with 4% PFA on plates; also called HAVCR2; Tim-3-overexpressing CHO-S cells
PROTOCOL_DESCRIPTION: cell-based ELISA on fixed CHO-S cells overexpressing human TIM-3;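 also: antibody binding at serial dilutions to PFA-fixed cells for 1 h at 37 °C, read as TMB colour signal after acid stop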
Lab note — pEC50 values are minus log10 of concentrations in M.

Before answering, review these 4 worked examples.
>>> quantitative_result("h1701-009 (antibody, human IgG4 S228P, kappa, V domains shown, Humanized IgG4 (S228P)/kappa) VH: QVQLVQSGAEVKKPGASVKVSCKASGYTFTDYYMNWVRQAPGQGLEWMGDIIPNNGGSKYNQKFKDRVTMTTDTSTSTAYMELRSLRSDDTAVYYCATWGYGSSYRWFDYWGQGTLVTVSS VL: DIQMTQSPSSLSASVGDRVTITCLASQPIGIWLAWYQQKPGKAPKLLIYAATSLADGVPSRFSGSGSGTDFTFTISSLQPEDIATYYCQQLYSSPWTFGGGTKVEIKR")
9.73
>>> quantitative_result("h1799-015 (antibody, human IgG4 S228P, kappa, V domains shown, Humanized IgG4 (S228P)/kappa) VH: EVKLVESGGGLVQPGGSLRLSCAASGFTFSDYYMAWVRQAPGKGLEWVANINYDGSSTYYLDSLKSRFTISRDNAKNSLYLQMNSLKAEDTAVYYCARDVGYYGGNYGFAYWGQGTLVTVSS VL: DIQMTQSPSSLSASVGDRVTITCRASDNIYSYLAWYQQKPGKAPKLLIYNAKTLAEGVPSRFSGSGSGTDFTLTISSLQPEDFATYYCQQHYGSPLTFGQGTKLEIKR")
9.73
>>> quantitative_result("h1799-019 (antibody, human IgG4 S228P, kappa, V domains shown, Humanized IgG4 (S228P)/kappa) VH: EVKLVESGGGLVQPGGSLRLSCAASGFTFSDYYMAWVRQAPGKGLEWVANINYDGSSTYYLDSLKSRFTISRDNAKNSLYLQMNSLKAEDTAVYYCARDVGYYGGNYGFAYWGQGTLVTVSS VL: DIQMTQSPSSLSASVGDRVTITCRASDNIYSYLAWYQQKPGKSPQLLVYNAKTLAEGVPSRFSGSGSGTDFTLTISSLQPEDFASYYCQQHYGSPLTFGQGTKLEIKR")
9.92
>>> quantitative_result("h1701-015 (antibody, human IgG4 S228P, kappa, V domains shown, Humanized IgG4 (S228P)/kappa) VH: QVQLVQSGAEVKKPGASVKVSCKASGYTFTDYYMNWVRQAPGQGLEWIADIIPNNGGSKYNQKFKDRATLTTDTSTSTAYMELRSLRSDDTAVYYCATWGYGSSYRWFDYWGQGTLVTVSS VL: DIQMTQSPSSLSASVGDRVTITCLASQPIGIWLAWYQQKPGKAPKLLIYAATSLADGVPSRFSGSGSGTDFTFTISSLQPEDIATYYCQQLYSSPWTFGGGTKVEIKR")
9.58

Okay, next one:
Challenge: Which value of pEC50 has been reported for h1701-011 (antibody, human IgG4 S228P, kappa, V domains shown, Humanized IgG4 (S228P)/kappa) VH: QVQLVQSGAEVKKPGASVKVSCKASGYTFTDYYMNWVRQAPGQGLEWIGDIIPNNGGSKYNQKFKDRVTMTTDTSTSTAYMELRSLRSDDTAVYYCATWGYGSSYRWFDYWGQGTLVTVSS VL: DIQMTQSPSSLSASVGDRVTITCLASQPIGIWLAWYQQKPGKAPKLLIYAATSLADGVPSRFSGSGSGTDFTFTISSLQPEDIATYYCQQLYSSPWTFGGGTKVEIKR in the records?
Response given: 9.73
